Numbers sourced from patent US11976083B2.

# study_target: human PAD4 (Homo sapiens, UniProt Q9UM07)
# Construct: human PAD4 (NM_012387), A2-P663, was PCR amplified; His-SUMO (N, cleaved yes)
# Sequence (Q9UM07 2-663): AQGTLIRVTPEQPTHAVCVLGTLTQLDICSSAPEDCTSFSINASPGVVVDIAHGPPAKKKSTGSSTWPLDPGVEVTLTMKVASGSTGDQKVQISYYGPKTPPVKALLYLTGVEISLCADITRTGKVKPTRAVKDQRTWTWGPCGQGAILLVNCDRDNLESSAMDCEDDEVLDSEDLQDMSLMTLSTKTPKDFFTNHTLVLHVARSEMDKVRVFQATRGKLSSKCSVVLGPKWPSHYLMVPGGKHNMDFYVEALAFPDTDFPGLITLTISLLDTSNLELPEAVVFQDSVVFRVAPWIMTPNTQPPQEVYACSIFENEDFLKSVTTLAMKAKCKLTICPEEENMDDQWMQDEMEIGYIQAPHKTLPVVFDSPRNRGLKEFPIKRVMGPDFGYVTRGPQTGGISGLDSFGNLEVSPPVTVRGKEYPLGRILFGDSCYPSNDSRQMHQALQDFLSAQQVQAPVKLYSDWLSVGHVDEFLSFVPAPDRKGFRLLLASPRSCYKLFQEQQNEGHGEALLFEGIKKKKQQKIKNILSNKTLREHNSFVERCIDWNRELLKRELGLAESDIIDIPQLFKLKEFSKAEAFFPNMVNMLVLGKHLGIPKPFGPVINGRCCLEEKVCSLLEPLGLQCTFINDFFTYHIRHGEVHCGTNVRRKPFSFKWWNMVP
# experiment: In vitro PAD4 BAEE biochemical assay
# condition_details: BAEE substrate 3 mM, 5 nM PAD4, 2 mM calcium chloride; geometric mean of multiple experiments
# Source text: In Vitro PAD4 BAEE Biochemical Assay The enzymatic activity of human PAD4 was monitored in a biochemical assay in the presence or absence of compounds using the small peptidyl arginine mimic BAEE (Na-Benzoyl-L-arginine ethyl ester hydrochloride) as substrate. PAD4 activity led to deimination of BAEE and release of ammonia. Levels of ammonia were monitored by using an amine coupling reaction and were indicative of PAD4 enzymatic activity. […]
Listing of entries alongside the reported IC50.
measured_quantity: IC50 (nM)

{"compound": "COc1cc(C(=O)N2CCC[C@@H](N)[C@H]2C)cc2nc(-c3cc4ccc5nc4n3CCCCCCC3(COC3)C(=O)N[C@@H]5C)n(C)c12 [Example 799]", "study_target": "human PAD4 (Homo sapiens, UniProt Q9UM07)", "recorded_value": 12}
{"compound": "COc1cc(C(=O)N2CC[C@@H](OC(F)F)[C@@H](N)C2)cc2nc(-c3cc4ccc5nc4n3CC(F)(F)CCCCC3(CC(F)(F)C3)C(=O)N[C@@H]5C)n(C)c12 [Example 822]", "study_target": "human PAD4 (Homo sapiens, UniProt Q9UM07)", "recorded_value": 205}
{"compound": "COc1cc(C(=O)N[C@H]2CNCCC2(F)F)cc2nc(-c3cc4ccc5nc4n3CCC/C=C/c3ccccc3C(=O)N[C@@H]5C)n(C)c12 [Example 495]", "study_target": "human PAD4 (Homo sapiens, UniProt Q9UM07)", "recorded_value": 518}
{"compound": "COc1cc(C(=O)N2[C@H]3CC[C@@H]2[C@H](N)C3)cc2nc(-c3cc4ccc5nc4n3CCCCCC(=O)Nc3ncccc3-5)n(C)c12 [Example 92]", "study_target": "human PAD4 (Homo sapiens, UniProt Q9UM07)", "recorded_value": 175}
{"compound": "COc1cc(C(=O)N2CCC[C@@H](N)C2)cc2nc(-c3cc4ccc5nc4n3C[C@H]3C[C@@H]3[C@@H](C)OCCC(=O)N[C@@H]5C)n(C)c12 [Example 162]", "study_target": "human PAD4 (Homo sapiens, UniProt Q9UM07)", "recorded_value": 55}
{"compound": "CO[C@@H]1CCN(C(=O)c2cc(F)c3c(c2)nc(-c2cc4ccc5nc4n2CCCCC[C@@H]2CC2C(=O)N[C@@H]5C)n3C)C[C@@H]1N (stereo partly shown) [Example 512]", "study_target": "human PAD4 (Homo sapiens, UniProt Q9UM07)", "recorded_value": 65}
{"compound": "Cc1ccc2c(n1)CCCCCn1c(-c3nc4cc(C(=O)N5C[C@H](N)[C@@H]6CC[C@H]5C6)cc(F)c4n3C3CC3)cc3ccc(nc31)[C@@H](C)NC2=O [Example 670]", "study_target": "human PAD4 (Homo sapiens, UniProt Q9UM07)", "recorded_value": 6}
{"compound": "COc1cc(C(=O)N2[C@H]3CC[C@@H]2[C@H](N)C3)cc2nc(-c3cc4ccc5nc4n3CCCCCC[C@H](OC)C(=O)N[C@@H]5C)c(C)n12 (single isomer, unassigned) [Example 335]", "study_target": "human PAD4 (Homo sapiens, UniProt Q9UM07)", "recorded_value": 32}
{"compound": "C[C@H]1NS(=O)(=O)CCCC/C=C/Cn2c(-c3nc4cc(C(=O)N[C@H]5CNCC[C@@H]5F)c(F)cc4n3C)cc3ccc1nc32 [Example 497]", "study_target": "human PAD4 (Homo sapiens, UniProt Q9UM07)", "recorded_value": 54}
{"compound": "COc1cc(C(=O)N2CC[C@@H](OC)[C@@H](N)C2)cc2nc(-c3cc4ccc5nc4n3CCCCCc3nccc(F)c3C(=O)N[C@@H]5C)n(C)c12 [Example 656]", "study_target": "human PAD4 (Homo sapiens, UniProt Q9UM07)", "recorded_value": 124}
{"compound": "COc1cc(C(=O)N2CC[C@@H](OC)[C@@H](N)C2)cc2nc(-c3cc4ccc5nc4n3CCCCCC[C@@H]3C[C@H]3C(=O)N[C@@H]5C)n(C)c12 [Example 586]", "study_target": "human PAD4 (Homo sapiens, UniProt Q9UM07)", "recorded_value": 88}
{"compound": "COCCn1c(-c2cc3ccc4nc3n2CCCCCc2nccnc2C(=O)N[C@@H]4C)nc2cc(C(=O)N3CC[C@@H](OC)[C@@H](N)C3)cc(OC)c21 [Example 510]", "study_target": "human PAD4 (Homo sapiens, UniProt Q9UM07)", "recorded_value": 277}
{"compound": "COc1cc(C(=O)N2CC[C@@H](OC)[C@@H](N)C2)cc2nc(-c3cc4ccc5nc4n3CC(F)(F)CCC[C@@H]3C[C@H]3C(=O)N[C@@H]5C)n(C)c12 [Example 848]", "study_target": "human PAD4 (Homo sapiens, UniProt Q9UM07)", "recorded_value": 33}
{"compound": "COc1cc(C(=O)N2C[C@H](N)[C@@H]3CC[C@H]2C3)cc2nc(-c3cc4ccc5nc4n3CCCCCc3c(F)cc(F)cc3C(=O)N[C@@H]5C)n(C)c12 [Example 894]", "study_target": "human PAD4 (Homo sapiens, UniProt Q9UM07)", "recorded_value": 72}
{"compound": "COc1cc(C(=O)N2CCC[C@@H](N)C2)cc2nc(-c3cc4ccc5nc4n3C[C@H]3C[C@@H]3CCCC(C)(C)C(=O)N[C@@H]5C)n(C)c12 [Example 292]", "study_target": "human PAD4 (Homo sapiens, UniProt Q9UM07)", "recorded_value": 53}
{"compound": "COc1cc(C(=O)N2CC[C@@H](OC)[C@@H](N)C2)cc2nc(-c3cc4ccc5nc4n3CCCCCCc3nccnc3C(=O)N[C@@H]5C)n(C)c12 [Example 606]", "study_target": "human PAD4 (Homo sapiens, UniProt Q9UM07)", "recorded_value": 129}
{"compound": "COc1cc(C(=O)N2C[C@H](N)[C@@H]3CC[C@H]2C3)cc2nc(-c3cc4ccc5nc4n3CCCCCC[C@@](c3ccccn3)(C(F)F)C(=O)N[C@@H]5C)n(C)c12 [Example 890]", "study_target": "human PAD4 (Homo sapiens, UniProt Q9UM07)", "recorded_value": 10}
{"compound": "COc1cc(C(=O)N2[C@H]3CC[C@@H]2[C@H](N)C3)cc2nc(-c3cc4ccc5nc4n3CCC3(CC3)COCCC(=O)N[C@@H]5C)c(C)n12 [Example 331]", "study_target": "human PAD4 (Homo sapiens, UniProt Q9UM07)", "recorded_value": 69}
{"compound": "COc1cc(C(=O)N2[C@H]3CC[C@@H]2[C@H](N)[C@H](OC(F)F)C3)cc2nc(-c3cc4ccc5nc4n3CCCCC[C@@H]3C[C@H]3C(=O)N[C@@H]5C)n(C)c12 [Example 581]", "study_target": "human PAD4 (Homo sapiens, UniProt Q9UM07)", "recorded_value": 176}
{"compound": "C[C@H]1NC(=O)c2cnc(C(F)(F)F)cc2CCCCCn2c(-c3nc4cc(C(=O)N5C[C@H](N)[C@@H]6CC[C@H]5C6)cc(F)c4n3C3CC3)cc3ccc1nc32 [Example 844]", "study_target": "human PAD4 (Homo sapiens, UniProt Q9UM07)", "recorded_value": 35}
{"compound": "COc1cc(C(=O)N2CCC[C@@H](N)C2)cc2nc(-c3cc4ccc5nc4n3CCCCCCc3ccccc3C(=O)N[C@@H]5C)n(C)c12 [Example 29]", "study_target": "human PAD4 (Homo sapiens, UniProt Q9UM07)", "recorded_value": 70}
{"compound": "C[C@H]1NC(=O)c2c(ncc3ccccc23)CCCCCn2c(-c3nc4cc(C(=O)N5C[C@H](N)[C@@H]6CC[C@H]5C6)cc(F)c4n3C3CC3)cc3ccc1nc32 [Example 457]", "study_target": "human PAD4 (Homo sapiens, UniProt Q9UM07)", "recorded_value": 38}
